Provenance of the data: patent US7432376B2

testSystem: 5-HT transport sites (SERT) (Rattus norvegicus, UniProt P31652)
Construct: tissue Pel-Freez, Rogers, Ark; host or cells: rat frontal cortex membranes
Sequence (P31652 whole entry): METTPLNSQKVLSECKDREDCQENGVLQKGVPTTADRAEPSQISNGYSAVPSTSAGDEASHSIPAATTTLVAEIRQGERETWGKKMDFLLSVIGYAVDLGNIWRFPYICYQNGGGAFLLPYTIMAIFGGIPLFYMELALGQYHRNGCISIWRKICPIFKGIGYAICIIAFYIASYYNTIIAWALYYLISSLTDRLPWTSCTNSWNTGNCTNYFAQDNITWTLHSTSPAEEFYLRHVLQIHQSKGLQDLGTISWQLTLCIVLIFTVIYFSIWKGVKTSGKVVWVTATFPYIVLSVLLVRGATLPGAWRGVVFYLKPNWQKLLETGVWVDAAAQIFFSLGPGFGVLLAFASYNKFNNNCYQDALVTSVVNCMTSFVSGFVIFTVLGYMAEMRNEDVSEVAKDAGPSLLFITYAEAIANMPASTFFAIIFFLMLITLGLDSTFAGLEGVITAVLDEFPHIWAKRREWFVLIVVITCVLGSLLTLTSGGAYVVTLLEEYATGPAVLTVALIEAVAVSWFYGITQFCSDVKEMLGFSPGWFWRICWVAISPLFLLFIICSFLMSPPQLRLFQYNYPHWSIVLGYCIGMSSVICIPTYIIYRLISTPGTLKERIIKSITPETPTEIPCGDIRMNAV
assayRemarks: Displacement of [3H]paroxetine binding at 5-HT transport sites in membranes from rat frontal cortex
Set-up: species or system Sprague-Dawley rat
Hi there, I'd appreciate the recorded pKi for every entry that follows.
Numbers only, as −log10 of the molar value.

{"compound": "CCC(O)C1C(c2ccc(C)cc2)CC2CCC1N2C (centres unmarked) [Compound 41a]", "assayResult": 6.79}
{"compound": "CCC(OC(C)=O)C1C(c2ccc3ccccc3c2)CC2CCC1N2C (centres unmarked) [Compound 42b]", "assayResult": 8.97}
{"compound": "CCCCCCCCCCCC(=O)OC(CC)C1C(c2ccc3ccccc3c2)CC2CCC1N2C (centres unmarked) [Compound 43b]", "assayResult": 7.04}

Turning to the following compound.
Look at this compound and give its reported pKi. CCC(O)C1C(c2ccc3ccccc3c2)CC2CCC1N2C (centres unmarked) [Compound 41b] 6.23

----------
testSystem: 5-HT transport sites (SERT) (Rattus norvegicus, UniProt P31652)
Construct: tissue Pel-Freez, Rogers, Ark; host or cells: rat frontal cortex membranes
assayRemarks: Displacement of [3H]paroxetine binding at 5-HT transport sites in membranes from rat frontal cortex
Parameters: species or system Sprague-Dawley rat
experimentalContext: rat frontal cortex membranes, 0.4 nM [3H]paroxetine; Ki by Cheng-Prusoff; mean of at least three experiments; read-out: Ki SERT
Experimental: Binding of at biogenic amine transporters was determined using striatum and frontal cortex dissected from frozen Sprague-Dawley rat brains (Pel-Freez, Rogers, Ark.). […] Affinities of analogs at 5-HT transport sites were determined by displacement of [^3H]paroxetine binding in membranes from rat frontal cortex, using 50 mg (original wet weight) of membranes and 0.4 nM [^3H]paroxetine. Non-specific binding was determined in the presence of 10 μM fluoxetine. […]
measurementLabel: Ki
Write the quantity with the unit trailing the number.

Request the reported Ki associated with CCCCCCCCCCCC(=O)OC(CC)C1C(c2ccc(C)cc2)CC2CCC1N2C (stereo not shown) [Compound 43a] 1.91 nM

----------
testSystem: dopamine transport sites (DAT) (Rattus norvegicus)
Construct: tissue Pel-Freez, Rogers, Ark; host or cells: rat striatum membranes
Sequence (P23977 whole entry): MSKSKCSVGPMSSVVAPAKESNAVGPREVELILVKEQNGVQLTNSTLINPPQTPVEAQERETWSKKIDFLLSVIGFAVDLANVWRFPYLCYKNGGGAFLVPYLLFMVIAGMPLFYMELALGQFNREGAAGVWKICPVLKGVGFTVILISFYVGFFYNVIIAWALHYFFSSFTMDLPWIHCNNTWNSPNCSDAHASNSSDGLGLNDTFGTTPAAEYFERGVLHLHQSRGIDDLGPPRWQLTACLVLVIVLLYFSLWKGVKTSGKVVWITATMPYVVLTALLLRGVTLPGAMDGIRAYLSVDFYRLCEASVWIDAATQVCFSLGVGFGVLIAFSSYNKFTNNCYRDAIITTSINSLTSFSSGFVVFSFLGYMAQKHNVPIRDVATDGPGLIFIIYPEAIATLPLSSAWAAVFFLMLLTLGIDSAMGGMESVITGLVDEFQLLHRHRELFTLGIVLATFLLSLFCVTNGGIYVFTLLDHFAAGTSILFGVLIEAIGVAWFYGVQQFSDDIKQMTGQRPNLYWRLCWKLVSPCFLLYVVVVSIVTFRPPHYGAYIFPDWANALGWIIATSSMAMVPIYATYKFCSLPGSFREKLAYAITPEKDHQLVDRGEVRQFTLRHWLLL
assayRemarks: Displacement of [125I]RTI-55 binding at dopamine transport sites in membranes from rat striatum
Parameters: species or system Sprague-Dawley rat
measurementLabel: pIC50
One number for each entry, as −log10 of the molar value.

Below are 3 molecules. Give each one its pIC50.
1. CCC(O)C1C(c2ccc(C)cc2)CC2CCC1N2C (centres unmarked) [Compound 41a]
2. CCC(OC(C)=O)C1C(c2ccc(C)cc2)CC2CCC1N2C (centres unmarked) [Compound 42a]
3. CCCCCCCCCCCC(=O)OC(CC)C1C(c2ccc3ccccc3c2)CC2CCC1N2C (centres unmarked) [Compound 43b]

8.43
7.06
6.96

Go through the list and state pIC50 for each entry.
1. CCC(O)C1C(c2ccc3ccccc3c2)CC2CCC1N2C (centres unmarked) [Compound 41b]
2. CCC(OC(C)=O)C1C(c2ccc3ccccc3c2)CC2CCC1N2C (centres unmarked) [Compound 42b]

8.21
8.76
